target: UniProtKB P30613; assay: PKR WT enzymatic AC50 assay; assay type: biochemical; details: wild type PKR
Sequence (P30613 whole entry): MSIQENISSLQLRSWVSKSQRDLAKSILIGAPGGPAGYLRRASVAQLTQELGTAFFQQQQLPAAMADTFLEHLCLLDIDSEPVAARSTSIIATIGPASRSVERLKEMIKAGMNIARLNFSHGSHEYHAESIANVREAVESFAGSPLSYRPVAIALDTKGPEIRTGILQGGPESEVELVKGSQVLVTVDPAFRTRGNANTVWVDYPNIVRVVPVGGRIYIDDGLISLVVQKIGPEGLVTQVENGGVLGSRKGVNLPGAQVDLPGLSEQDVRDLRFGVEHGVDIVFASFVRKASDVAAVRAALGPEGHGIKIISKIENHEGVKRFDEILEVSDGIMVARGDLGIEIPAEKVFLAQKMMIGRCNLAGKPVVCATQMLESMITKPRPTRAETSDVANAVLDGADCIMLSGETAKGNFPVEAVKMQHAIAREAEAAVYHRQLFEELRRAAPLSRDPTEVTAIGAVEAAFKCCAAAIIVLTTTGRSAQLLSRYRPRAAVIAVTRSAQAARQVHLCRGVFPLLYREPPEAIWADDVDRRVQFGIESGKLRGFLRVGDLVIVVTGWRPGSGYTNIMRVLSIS
Assay Readout: AC50

Record excerpt, results attached:
- Molecule: "O=C(c1ccc(NS(=O)(=O)c2cccc3ccc(F)nc23)cc1)N1CCC(O)(c2ccccc2Cl)CC1"
  Reported: "< 100 nM"
- Molecule: "O=C(c1ccc(NS(=O)(=O)c2cccc3nccnc23)cc1)N1CCC(O)(CCCC(F)F)CC1"
  Reported: "< 100 nM"
- Molecule: "O=C(c1ccc(NS(=O)(=O)c2cccc3csnc23)cc1)N1CCC(O)(c2ccccc2Cl)CC1"
  Reported: "101 to 1000 nM"
- Molecule: "O=C(c1ccc(NS(=O)(=O)c2cccc3scnc23)cc1)N1CCC(O)(COCC(F)(F)F)CC1"
  Reported: "101 to 1000 nM"

Query: State its AC50: O=C(c1ccc(NS(=O)(=O)c2cccc3cccnc23)c(F)c1F)N1CCC(O)(c2ccccc2)CC1
Result: 1010 to 10000 nM

Query: State its AC50: COc1cccnc1C1(O)CCN(C(=O)c2ccc(NS(=O)(=O)c3cccc4cccnc34)cc2)CC1
Result: 101 to 1000 nM

Query: State its AC50: O=C(c1ccc(NS(=O)(=O)c2cccc3cccnc23)cc1)N1CCC(O)(c2ccc(F)cc2Cl)CC1
Result: < 100 nM

Query: State its AC50: O=C(c1c(F)cc(NS(=O)(=O)c2cccc3cccnc23)cc1F)N1CCC(O)(c2ccccc2Cl)CC1
Result: 101 to 1000 nM

Query: State its AC50: CC(CC1(O)CCN(C(=O)c2ccc(NS(=O)(=O)c3cccc4scnc34)cc2)CC1)C(F)(F)F (stereo not drawn)
Result: < 100 nM
